Observed log10(IC50) for human KISS1R (Homo sapiens), reported per entry below.
Where a SMILES comes first, the peptide text is derived from it.
Recorded metric: log10(IC50) (log10 of the value in µM)

Compound	Obs value
CC(C)C[C@H](NC(=O)CNC(=O)[C@H](Cc1ccccc1)NC(=O)[C@H](CO)NC(=O)[C@H](C)NC(=O)[C@H](Cc1c[nH]c2ccccc12)NC(=O)[C@H](CC(N)=O)NC(=O)[C@@H](N)Cc1ccc(O)cc1)C(=O)N[C@@H](CCCNC(=N)N)C(=O)N[C@@H](Cc1ccccc1)C(N)=O [ANA4] (H-YNWASFGLRF-NH2)	-1.36
C[C@H](NC(=O)CNC(=O)[C@H](Cc1ccccc1)NC(=O)[C@H](CO)NC(=O)[C@H](CC(N)=O)NC(=O)[C@H](Cc1c[nH]c2ccccc12)NC(=O)[C@H](CC(N)=O)NC(=O)[C@@H](N)Cc1ccc(O)cc1)C(=O)N[C@@H](CCCNC(=N)N)C(=O)N[C@@H](Cc1ccccc1)C(N)=O [ANA8] (H-YNWNSFGARF-NH2)	-1.11
CC(C)C[C@H](NC(=O)CNC(=O)[C@H](Cc1ccccc1)NC(=O)[C@H](CO)NC(=O)[C@H](CC(N)=O)NC(=O)[C@H](C)NC(=O)[C@H](CC(N)=O)NC(=O)[C@@H](N)Cc1ccc(O)cc1)C(=O)N[C@@H](CCCNC(=N)N)C(=O)N[C@@H](Cc1ccccc1)C(N)=O [ANA3] (H-YNANSFGLRF-NH2)	-2.57
CC(C)C[C@H](NC(=O)CNC(=O)[C@H](Cc1ccccc1)NC(=O)[C@H](CO)NC(=O)[C@H](CC(N)=O)NC(=O)[C@H](Cc1c[nH]c2ccccc12)NC(=O)[C@H](C)NC(=O)[C@@H](N)Cc1ccc(O)cc1)C(=O)N[C@@H](CCCNC(=N)N)C(=O)N[C@@H](Cc1ccccc1)C(N)=O [ANA2] (H-YAWNSFGLRF-NH2)	-0.84
CC(C)C[C@H](NC(=O)CNC(=O)[C@H](Cc1ccccc1)NC(=O)[C@@H](NC(=O)[C@H](CC(N)=O)NC(=O)[C@H](Cc1c[nH]c2ccccc12)NC(=O)[C@H](CC(N)=O)NC(=O)[C@@H](N)Cc1ccc(O)cc1)[C@@H](C)O)C(=O)N[C@@H](CCCNC(=N)N)C(=O)N[C@@H](Cc1ccccc1)C(N)=O [ANA14] (H-YNWNTFGLRF-NH2)	-2.64
CC(C)C[C@H](NC(=O)CNC(=O)[C@H](Cc1ccccc1)NC(=O)[C@H](CO)NC(=O)[C@H](CC(N)=O)NC(=O)[C@H](Cc1c[nH]c2ccccc12)NC(=O)[C@H](CC(N)=O)NC(=O)[C@H](C)N)C(=O)N[C@@H](CCCNC(=N)N)C(=O)N[C@@H](Cc1ccccc1)C(N)=O [ANA1] (H-ANWNSFGLRF-NH2)	-1.63

====

Experimental system: human KISS1R (Homo sapiens)
Sequence (Q969F8 whole entry): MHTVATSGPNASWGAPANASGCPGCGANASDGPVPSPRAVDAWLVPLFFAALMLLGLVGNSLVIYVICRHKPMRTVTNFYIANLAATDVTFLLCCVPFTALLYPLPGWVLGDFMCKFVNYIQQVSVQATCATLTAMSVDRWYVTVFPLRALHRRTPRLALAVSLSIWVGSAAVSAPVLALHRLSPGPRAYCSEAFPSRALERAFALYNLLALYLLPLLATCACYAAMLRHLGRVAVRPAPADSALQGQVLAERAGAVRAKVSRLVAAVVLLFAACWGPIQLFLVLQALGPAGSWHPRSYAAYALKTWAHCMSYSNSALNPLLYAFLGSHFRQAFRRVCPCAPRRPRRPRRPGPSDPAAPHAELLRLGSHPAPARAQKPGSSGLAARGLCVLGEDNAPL
Experiment notes: Receptor binding assay, competition against [125I]KP-54 in CHO-KISS1R membranes
Study conditions: SEM
pIC50: −log10 of the molar value. Where a SMILES comes first, the peptide text is derived from it.

Compound	pIC50
CC[C@H](C)[C@H](NC(=O)CNC(=O)[C@H](Cc1ccccc1)NC(=O)[C@H](CO)NC(=O)[C@H](CC(N)=O)NC(=O)[C@H](Cc1c[nH]c2ccccc12)NC(=O)[C@H](CC(N)=O)NC(=O)[C@@H](N)Cc1ccc(O)cc1)C(=O)N[C@@H](CCCNC(=N)N)C(=O)N[C@@H](Cc1ccccc1)C(N)=O [ANA16] (H-YNWNSFGIRF-NH2)	7.40
CC(C)C[C@H](NC(=O)CNC(=O)[C@H](Cc1ccccc1)NC(=O)[C@H](CO)NC(=O)[C@H](CC(N)=O)NC(=O)[C@H](Cc1c[nH]c2ccccc12)NC(=O)[C@H](CC(N)=O)NC(=O)[C@@H](N)Cc1ccc(O)cc1)C(=O)N[C@@H](CCCNC(=N)N)C(=O)N[C@@H](Cc1c[nH]cn1)C(N)=O [ANA18] (H-YNWNSFGLRH-NH2)	6.42
